- assay: Example 4: dose response of FKBP constructs 160-255, Ec50, Ec90 and fold change (raw and normalized to mCherry)
- Type: cell-based
- testSettings: fold change during initial analysis
- Experimental: Additional experiments were performed for constructs FKBP-160-292.
FC (fold change) less than 50 is Criterion met; FC (fold change) greater than or equal to 50 is Criterion not met.

molecule: FKBP-251: combinatorial FKBP13 mutant construct of Table 10 (protein, Description of sequence: Construct Name: FKBP-251; Mutation(s): Q72R Q84E A117W V85R DRD E130F) HCPIKSRKGDVLHMHYTGKLEDGTEFDSSLPRNQPFVFSLGTGERIKGWDQGLLGMCEGEKRKLVIPSELGYGERGWPPKIPGGATLVFFVELLKIER
className: Criterion not met
//
molecule: FKBP-168: FKBP13 DRD-AcGFP construct of Table 10 (protein, Description of sequence: Construct Name: FKBP-168; Mutation(s): Q72R T82W Q84R A117W DRD M54A V85R) HCPIKSRKGDVLHAHYTGKLEDGTEFDSSLPRNQPFVFSLGWGRRIKGWDQGLLGMCEGEKRKLVIPSELGYGERGWPPKIPGGATLVFEVELLKIER
className: Criterion not met
//
molecule: FKBP-187 (protein, Description of sequence: Construct Name: FKBP-187; Mutation(s): Q72R Q84E A117W V85R DRD M54A L80G) HCPIKSRKGDVLHAHYTGKLEDGTEFDSSLPRNQPFVFSGGTGERIKGWDQGLLGMCEGEKRKLVIPSELGYGERGWPPKIPGGATLVFEVELLKIER
className: Criterion met
//
molecule: FKBP-204 (protein, Description of sequence: Construct Name: FKBP-204; Mutation(s): Q72R Q84E A117W V85R DRD M54A D90A) HCPIKSRKGDVLHAHYTGKLEDGTEFDSSLPRNQPFVFSLGTGERIKGWAQGLLGMCEGEKRKLVIPSELGYGERGWPPKIPGGATLVFEVELLKIER
className: Criterion met
